All values here come from the RepoRT retention time repository (doi:10.1021/acs.analchem.2c02893).

# assay-overview: RP, Thermo Scientific Acclaim RSLC 120 C18, 100 × 2.1 mm, 2.2 µm, 30 °C, 0.2 mL/min, estimated dead time 1.1 min; A: 90% water + 10% methanol + 0.01% formic acid + 5 mM ammonium formate, pH 3.61; B: methanol + 0.01% formic acid + 5 mM ammonium formate, pH 3.61; gradient (min/%B) 0/1 1/1 2/39 13/99.9 15/99.9 15.1/1 20.1/1
# particulars: stereoisomer not certain
observed-property: LC retention time (min)
Provide only the numeric value, understood in min.

Example entries and their recorded answers appear below.
{"columns": ["compound", "LC retention time / min"],
 "data": [
  ["CCCCCn1cc(C(=O)c2cccc3ccccc23)c2ccccc21", 12.4],
  ["S=c1[nH]c2ccccc2s1", 6.89],
  ["O=c1c(-c2ccc(O)cc2)coc2cc(O)cc(O)c12", 7.7],
  ["CN1CCC(OC(c2ccccc2)c2ccccc2)CC1", 7.23],
  ["CCCNC(=O)NS(=O)(=O)c1ccc(Cl)cc1 [Chlorpropamide]", 7.19]
]}

LC retention time lookup needed for CC(C)C(NC(=O)c1cn(CCCCCF)c2ccccc12)C(N)=O (centres undefined) , thanks.
8.93
